Biological target: purified recombinant human p38 alpha MAPK (Homo sapiens, UniProt Q16539)
Construct: purchased Millipore, USA
Sequence (Q16539 whole entry): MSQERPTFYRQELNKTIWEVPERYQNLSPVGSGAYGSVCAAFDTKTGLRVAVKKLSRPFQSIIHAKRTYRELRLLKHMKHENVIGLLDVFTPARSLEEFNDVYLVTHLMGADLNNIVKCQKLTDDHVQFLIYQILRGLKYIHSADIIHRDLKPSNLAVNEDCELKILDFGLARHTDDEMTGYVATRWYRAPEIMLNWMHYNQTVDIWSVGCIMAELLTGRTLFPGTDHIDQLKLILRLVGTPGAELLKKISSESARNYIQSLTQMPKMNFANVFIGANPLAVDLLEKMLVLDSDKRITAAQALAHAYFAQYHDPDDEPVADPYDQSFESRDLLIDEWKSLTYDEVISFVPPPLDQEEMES
Assay: Inhibition of p38 alpha MAPK activity, TR-FRET kinase assay
Type: biochemical
Conditions: Concentration 1 μM; read-out: P38α Inhibition
experimental endpoint: inhibition at 1 µM

See these solved cases before continuing.
>  <smiles representation>
CCCSc1ccccc1-c1nnc2n1CCN(CCOc1ccc(NC(=O)Nc3cc(C(C)(C)C)cc(NS(C)(=O)=O)c3OC)c3c1CCC3)C2

>  <inhibition at 1 µM>
80 to 100%

$$$$
>  <smiles representation>
COc1c(NC(=O)Nc2ccc(OCCCN3CCN(CC4CC4)C(=O)C3)c3c2CCC3)cc(C(C)(C)C)cc1NS(C)(=O)=O

>  <inhibition at 1 µM>
60 to 80%

$$$$
>  <smiles representation>
COc1ccccc1-c1nnc2n1CCN(CCOc1ccc(NC(=O)Nc3cc(C(C)(C)C)nn3-c3ccc(C)cc3)c3c1CCC3)C2

>  <inhibition at 1 µM>
80 to 100%

$$$$
>  <smiles representation>
COc1ccccc1-c1nnc2n1CCN(C(=O)COc1ccc(NC(=O)Nc3cc(C(C)(C)C)nn3-c3ccccc3)c3c1CCC3)C2

>  <inhibition at 1 µM>
80 to 100%

$$$$
>  <smiles representation>
CCc1ccc(-n2nc(C(C)(C)C)cc2NC(=O)Nc2ccc(OCCN3CCn4c(nnc4-c4ccccc4OC)C3)c3c2CCC3)cc1

>  <inhibition at 1 µM>
80 to 100%

$$$$
>  <smiles representation>
Cc1ccc(-n2nc(C(C)(C)C)cc2NC(=O)Nc2ccc(OCCN3CCN(c4ccccc4)C(=O)C3)c3c2CCC3)cc1

>  <inhibition at 1 µM>
80 to 100%

$$$$

Switching to the query record.
Problem: Name the recorded inhibition at 1 µM of the item "Cc1ccc(-n2nc(C(C)(C)C)cc2NC(=O)Nc2cc(C)c(OCCN3CCn4c(nnc4-c4cc(Cl)ccc4O)C3)c3c2CCC3)cc1" in your answer.
Result: < 20%

###

inhibition at 1 µM reference
Target: purified recombinant human p38 alpha MAPK (Homo sapiens, UniProt Q16539)
Construct: purchased Millipore, USA
Assay: Inhibition of p38 alpha MAPK activity, TR-FRET kinase assay
Type: biochemical
Details: Concentration 1 μM; read-out: P38α Inhibition

Problem: Name the recorded inhibition at 1 µM of the item "COc1ccc(-n2nc(C(C)(C)C)cc2NC(=O)Nc2ccc(OCCN3CCN(CC4CC4)C(=O)C3)c3c2CCC3)cc1" in your answer.
Result: 60 to 80%

Problem: Name the recorded inhibition at 1 µM of the item "Cc1ccccc1-n1nc(C(C)(C)C)cc1NC(=O)Nc1ccc(OCCN2CCN(CC3CC3)C(=O)C2)c2c1CCC2" in your answer.
Result: 40 to 60%

Problem: Name the recorded inhibition at 1 µM of the item "Cc1ccc(-n2nc(C(C)(C)C)cc2NC(=O)Nc2ccc(OCCN3CCN(CCO)C(=O)C3)c3c2CCC3)cc1" in your answer.
Result: 80 to 100%

###

Biological target: purified recombinant human p38 alpha MAPK (Homo sapiens, UniProt Q16539)
Construct: purchased Millipore, USA
Assay: Inhibition of p38 alpha MAPK activity, TR-FRET kinase assay
Format: biochemical
Conditions: Concentration 1 μM; read-out: P38α Inhibition
inhibition at 1 µM reference

Problem: Name the recorded inhibition at 1 µM of the item "COc1ccc(-n2nc(C(C)(C)C)cc2NC(=O)Nc2ccc(OCC(=O)N3CCn4c(nnc4C(F)(F)F)C3)c3c2CCC3)cc1Cl" in your answer.
Result: 40 to 60%

Problem: Name the recorded inhibition at 1 µM of the item "CC(C)(C)c1cc(NC(=O)Nc2ccc(OCCN3CCN(CC4CC4)C(=O)C3)c3c2CCC3)n(-c2ccc(O)cc2)n1" in your answer.
Result: 80 to 100%

Problem: Name the recorded inhibition at 1 µM of the item "Cc1ccc(-n2nc(C(C)(C)C)cc2NC(=O)Nc2ccc(OCC(=O)N3CCn4c(nnc4-c4ccccc4)C3)c3c2CCC3)cc1" in your answer.
Result: 60 to 80%

Problem: Name the recorded inhibition at 1 µM of the item "CSc1ccccc1-c1nnc2n1CCN(CCOc1ccc(NC(=O)Nc3cc(C(C)(C)C)nn3-c3ccc(O)c(Cl)c3)c3c1CCC3)C2" in your answer.
Result: 80 to 100%

###

inhibition at 1 µM reference
Target: purified recombinant human p38 alpha MAPK (Homo sapiens, UniProt Q16539)
Construct: purchased Millipore, USA
Assay: Inhibition of p38 alpha MAPK activity, TR-FRET kinase assay
Assay type: biochemical
Details: Concentration 1 μM; read-out: P38α Inhibition

See these solved cases before continuing.
>  <molecule>
COc1ccc(-c2nnc3n2CCN(C(=O)COc2ccc(NC(=O)Nc4cc(C(C)(C)C)nn4-c4ccccc4)c4c2CCC4)C3)cc1Cl [Compound 58]

>  <inhibition at 1 µM>
40 to 60%

$$$$
>  <molecule>
COc1c(NC(=O)Nc2cc(C)c(OCCN3CCn4c(nnc4-c4cc(Cl)ccc4O)C3)c3c2CCC3)cc(C(C)(C)C)cc1NS(C)(=O)=O [Compound 73]

>  <inhibition at 1 µM>
40 to 60%

$$$$
>  <molecule>
COc1cc(-n2nc(C(C)(C)C)cc2NC(=O)Nc2ccc(OCCN3CCN(CC4CC4)C(=O)C3)c3c2CCC3)cc(OC)c1OC [Compound 70]

>  <inhibition at 1 µM>
40 to 60%

$$$$
>  <molecule>
CCS(=O)(=O)Nc1cc(C(C)(C)C)cc(NC(=O)Nc2ccc(OCCN3CCn4c(nnc4-c4ccc(O)cc4O)C3)c3c2CCC3)c1OC [Compound 49]

>  <inhibition at 1 µM>
80 to 100%

$$$$
>  <molecule>
CCCOc1ccccc1-c1nnc2n1CCN(CCOc1ccc(NC(=O)Nc3cc(C(C)(C)C)nn3-c3ccc(O)c(Cl)c3)c3c1CCC3)C2 [Compound 27]

>  <inhibition at 1 µM>
80 to 100%

$$$$

Problem: Name the recorded inhibition at 1 µM of the item CC(=O)Nc1cc2c(s1)CCN(C(=O)COc1ccc(NC(=O)Nc3cc(C(C)(C)C)nn3-c3ccc(C)cc3)c3c1CCC3)C2 [Compound 52] in your answer.
Result: 60 to 80%

Problem: Name the recorded inhibition at 1 µM of the item CC(C)(C)c1ccc(-n2nc(C(C)(C)C)cc2NC(=O)Nc2ccc(OCC(=O)N3CCn4c(nnc4C(F)(F)F)C3)c3c2CCC3)cc1 [Compound 2] in your answer.
Result: 20 to 40%

Problem: Name the recorded inhibition at 1 µM of the item CSc1ccccc1-c1nnc2n1CCN(C(=O)COc1ccc(NC(=O)Nc3cc(C(C)(C)C)nn3-c3ccc(C)cc3)c3c1CCC3)C2 [Compound 10] in your answer.
Result: 80 to 100%

Problem: Name the recorded inhibition at 1 µM of the item CC(C)(C)c1cc(NC(=O)Nc2ccc(OCCN3CCN(CC4CC4)C(=O)C3)c3c2CCC3)n(-c2ccc(F)cc2)n1 [Compound 60] in your answer.
Result: 60 to 80%

Problem: Name the recorded inhibition at 1 µM of the item COc1c(NC(=O)Nc2ccc(OCCN3CCN(CC4CC4)C(=O)C3)c3c2CCC3)cc(C(C)(C)C)cc1NC(=O)C1CC1 [Compound 64] in your answer.
Result: 20 to 40%
